# System: HDV
# protocol summary: HDV infection in primary human hepatocytes (PHHs) and RNA quantification (RT-qPCR)
# Assay type: cell-based
# test context: Hepatocyte, 192 h; HDV infection of primary human hepatocytes, Donor 2; viral RNA at day 8 post infection; read-out: Cellular EC50 (μM) Donor 2
# maps each entry to its EC50
observed property: EC50

- structure smiles: "Cc1cc(-c2cc3c(cc2F)N(c2ccccc2)C[C@@H](C2CCCCC2)N(C)S3(=O)=O)sc1C(=O)O"
  system: "HDV"
  observed measurement: "< 0.1 µM"
- structure smiles: "CN1[C@H](C2CCCCC2)CN(c2ccccc2)c2cc(Cl)c(-c3ccc(F)c(C(=O)O)c3)cc2S1(=O)=O"
  system: "HDV"
  observed measurement: "0.1 to 1 µM"
- structure smiles: "Cc1cc(-c2cc3c(cc2OCc2ccsc2)N(c2ccccc2)C[C@@H](C2CCCCC2)N(C)S3(=O)=O)sc1C(=O)O"
  system: "HDV"
  observed measurement: "< 0.1 µM"
- structure smiles: "CN1[C@H](C2CCCCC2)CN(c2ccccc2)c2cc(F)c(-c3cc(F)c(C(=O)O)s3)cc2S1(=O)=O"
  system: "HDV"
  observed measurement: "< 0.1 µM"

###

The following compounds are shown together with reported pEC50 values.
# system: NTCP (Homo sapiens, UniProt Q14973)
# Sequence (Q14973 1-349): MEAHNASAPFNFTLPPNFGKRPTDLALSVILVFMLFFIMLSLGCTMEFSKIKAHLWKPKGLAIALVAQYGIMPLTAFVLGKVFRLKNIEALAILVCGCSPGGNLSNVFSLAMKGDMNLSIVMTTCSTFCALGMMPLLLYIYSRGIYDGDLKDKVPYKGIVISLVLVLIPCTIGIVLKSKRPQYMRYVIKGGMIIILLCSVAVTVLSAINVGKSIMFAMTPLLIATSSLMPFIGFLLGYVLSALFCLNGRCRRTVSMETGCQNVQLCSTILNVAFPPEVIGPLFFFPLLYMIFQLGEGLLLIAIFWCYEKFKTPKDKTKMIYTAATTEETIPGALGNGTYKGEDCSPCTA
# protocol summary: HepG2-NTCP preS1 binding competition assay (FITC-labeled myristoylated preS1 peptide)
# test context: HepG2-NTCP cells; competition with FITC-labeled preS1 peptide
pEC50: −log10 of the molar value.

- structure smiles: "CN1[C@H](C2CCCCC2)CN(c2ccccc2)c2cc(Cl)c([C@H]3C[C@H](C(=O)O)C3)cc2S1(=O)=O"
  pEC50: "6.00 to 7.00"
- structure smiles: "CC(C)CN1C[C@@H](C2CCCCC2)N(C)S(=O)(=O)c2cc(-c3ccc(F)c(C(=O)O)c3)c(Cl)cc21"
  pEC50: "> 7.00"
- structure smiles: "CN1[C@H](C2CCCCC2)CN(c2ccccc2)c2cc(O[C@H]3C[C@H](O)C3)c(-c3cc(F)c(C(=O)O)s3)cc2S1(=O)=O"
  pEC50: "6.00 to 7.00"
- structure smiles: "CN1[C@H](C2CCCCC2)CN(c2ccccc2)c2cc(Cl)c(-c3cc(F)c(C(=O)O)s3)cc2S1(=O)=O"
  pEC50: "> 7.00"
- structure smiles: "CN1[C@H](C2CCCCC2)CN(c2ccccc2)c2cc(Cl)c(N3CC[C@H](C(=O)O)C3)cc2S1(=O)=O"
  pEC50: "6.00 to 7.00"
- structure smiles: "CN1[C@H](C2CCCCC2)CN(c2ccccc2)c2cc(Cl)c(N3C[C@H](C(=O)O)[C@@H](c4ccccc4)C3)cc2S1(=O)=O"
  pEC50: "6.00 to 7.00"
- structure smiles: "CN1[C@H](C2CCCCC2)CN(c2ccccc2)c2cc(Cl)c(-c3cc(NC(=O)OCC(F)F)c(C(=O)O)s3)cc2S1(=O)=O"
  pEC50: "> 7.00"
